# MEASURED ON: KRas^G12S (Homo sapiens, UniProt P01116, G12S)
# Construct: Biotinylated KRas (corresponding to amino acids 1-169, produced at Accelegan Inc.); biotin (biotinylated); purchased Accelegan Inc
# Sequence (P01116 1-169 isoform P01116-2 G12S): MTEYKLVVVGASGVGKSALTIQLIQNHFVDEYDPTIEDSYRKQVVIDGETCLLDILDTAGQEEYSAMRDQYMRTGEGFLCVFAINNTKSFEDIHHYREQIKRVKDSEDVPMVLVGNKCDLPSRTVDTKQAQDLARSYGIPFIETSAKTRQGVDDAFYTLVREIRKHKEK
# TEST PROTOCOL: KRas binding assay (TR-FRET tracer displacement), KRas G12S
# TEST SETTINGS: TR-FRET tracer displacement, KRas G12S
ASSAY METRIC: IC50 (nM)
Answers are plain numbers, in nM.

Observe how each entry below is paired with its result.
MOLECULE	IC50 / nM
Cc1cc2[nH]ccc2c(-c2ncc3c(N4CCC[C@@](C)(O)C4)nc(OCC45CCCN4CCC5)nc3c2F)c1C [Example 871]	4440
Oc1cc(-c2ncc3c(N4C[C@@H]5C[C@H](C4)[C@H](O)C5)nc(OC[C@@]45CCCN4C[C@H](F)C5)nc3c2F)c2ccccc2c1Br [Example 781]	414

Recorded IC50 of C#Cc1c(F)ccc2cc(O)cc(-c3ncc4c(N5CCC[C@@](C)(O)C5)nc(OC[C@@]56CCCN5[C@@H](CO)CC6)nc4c3F)c12 [Example 809] , please.
4

###

# MEASURED ON: KRas^G12R (Homo sapiens, UniProt P01116, G12R)
# Construct: Biotinylated KRas (corresponding to amino acids 1-169, produced at Accelegan Inc.); biotin (biotinylated); purchased Accelegan Inc
# Sequence (P01116 1-169 isoform P01116-2 G12R): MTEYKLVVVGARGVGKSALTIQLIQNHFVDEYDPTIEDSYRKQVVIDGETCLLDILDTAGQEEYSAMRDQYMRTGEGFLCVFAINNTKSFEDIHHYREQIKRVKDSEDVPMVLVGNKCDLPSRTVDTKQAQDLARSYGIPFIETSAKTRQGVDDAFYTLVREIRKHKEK
# TEST PROTOCOL: KRas binding assay (TR-FRET tracer displacement), KRas G12R
ASSAY METRIC: IC50

COMPOUND	IC50
O=C1NCC2(CCCN(c3nc(OCC45CCCN4CCC5)nc4c(F)c(-c5cc(O)cc(Cl)c5C5CC5)ncc34)C2)N1 (stereo not drawn) [Example 741]	< 2 nM
CCc1c(F)ccc2cc(O)cc(-c3ncc4c(NCc5cc(C(=O)N(C)C)nn5C[C@H]5C[C@@H](O)C5)nc(OC[C@@]56CCCN5C[C@H](F)C6)nc4c3F)c12 [Example 687]	175 nM
CCc1c(F)ccc2cc(O)cc(-c3ncc4c(N5CCCC(C6CCOC6)C5)nc(OC[C@@]56CCCN5C[C@H](F)C6)nc4c3F)c12 (stereo partly drawn) [Example 595]	85 nM
CCc1c(F)ccc2cc(O)cc(-c3ncc4c(N5CC6CCC(CC(N)=O)(C6)C5)nc(OC[C@@]56CCCN5C[C@H](F)C6)nc4c3F)c12 (stereo partly drawn) [Example 908]	8 nM
O=C1NC(=O)C2(CCCN(c3nc(OCC45CCCN4CCC5)nc4c(F)c(-c5c6ccccc6cc6[nH]ncc56)ncc34)C2)N1 (stereo not drawn) [Example 755]	9 nM

Please state IC50 for every compound in the list that follows.
1. CCc1c(F)ccc2cc(O)cc(-c3ncc4c(N5CCC[C@@]6(CC[S@+]([O-])C6)C5)nc(OC[C@@]56CCCN5C[C@H](F)C6)nc4c3F)c12 (single isomer, unassigned) [Example 624]
2. CCc1c(F)ccc2cc(O)cc(-c3ncc4c(N5CCC[C@@](C)(O)C5)nc(OCC5(CN(C)C)CC5CC)nc4c3F)c12 (stereo partly drawn) [Example 703]
3. CCc1c(F)ccc2cc(O)cc(-c3ncc4c(N5C[C@H]6CC[C@@H](C5)N6C5CC(F)(F)C5)nc(OC[C@@]56CCCN5C[C@H](F)C6)nc4c3F)c12 [Example 831]
4. Cc1cc2[nH]cnc2c(-c2ncc3c(N4CCC[C@@](C)(O)C4)nc(OCC45CCCN4CCC5)nc3c2F)c1C [Example 888]
5. CCc1c(F)ccc2cc(O)cc(-c3ncc4c(N5CCC[C@@](C)(O)C5)nc(OCC5(CN(C)C)C(C)C5C)nc4c3F)c12 (stereo partly drawn) [Example 818]
6. CCc1c(F)ccc2cc(O)cc(-c3ncc4c(N5CC6C(=O)NC(=O)C6C5)nc(OC[C@]56CCCN5[C@H](COC(=O)N(C)C)CC6)nc4c3F)c12 (stereo partly drawn) [Example 708]
7. CCc1c(F)ccc2cc(O)cc(-c3ncc4c(N5CCN(C)C[C@]6(C)CCC[C@@H]56)nc(OC[C@@]56CCCN5C[C@H](F)C6)nc4c3F)c12 [Example 866]

1. 41 nM
2. 14 nM
3. 38 nM
4. 62300 nM
5. 8 nM
6. 39800 nM
7. 7350 nM

###

# MEASURED ON: KRas^WT (Homo sapiens)
# Construct: Biotinylated KRas (corresponding to amino acids 1-169, produced at Accelegan Inc.); biotin (biotinylated); purchased Accelegan Inc
# Sequence (P01116 1-169 isoform P01116-2): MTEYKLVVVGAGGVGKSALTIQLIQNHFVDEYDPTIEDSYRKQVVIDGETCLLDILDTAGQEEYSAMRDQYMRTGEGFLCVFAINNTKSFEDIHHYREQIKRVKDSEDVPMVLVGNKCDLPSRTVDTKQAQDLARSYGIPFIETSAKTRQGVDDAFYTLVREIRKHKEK
# TEST PROTOCOL: KRas binding assay (TR-FRET tracer displacement), KRas WT
# TEST SETTINGS: TR-FRET tracer displacement, KRas WT
Quick rule for you: IC50 under 600 nM gets Fulfilled, anything else gets Not fulfilled.

These recorded examples may help you get a feel for the data.
COMPOUND	CLASS
Cc1cc2[nH]cnc2c(-c2ncc3c(N4CCC[C@@](C)(O)C4)nc(OCC45CCCN4CCC5)nc3c2F)c1C	Fulfilled
Cc1cc2[nH]c(=O)[nH]c2c(-c2ncc3c(N4CCC[C@@](C)(O)C4)nc(OCC45CCCN4CCC5)nc3c2F)c1C	Not fulfilled
C=C1CN2CCCC2(COc2nc(N3CC4C(=O)NC(=O)C4C3)c3cnc(-c4cc(O)cc5ccc(F)c(CC)c45)c(F)c3n2)C1 (stereo not drawn)	Fulfilled
O=C1NC(=O)C2(CCCN(c3nc(OC[C@@]45CCCN4C[C@H](F)C5)nc4c(F)c(-c5c6ccccc6cc6[nH]ncc56)ncc34)C2)N1 (stereo partly drawn)	Fulfilled
CN(C)C(=O)c1cc2n(n1)CCCN(c1nc(OCC34CCCN3CCC4)nc3c(F)c(-c4c5ccccc5cc5[nH]ncc45)ncc13)C2	Fulfilled

Query compound follows.
# strict comparison: is reported IC50 < 600 nM? input = Cc1cc2[nH]nnc2c(-c2ncc3c(N4C[C@@H]5C[C@H](C4)[C@H](O)C5)nc(OCC45CCCN4CCC5)nc3c2F)c1C
Not fulfilled

###

# MEASURED ON: KRas^Q61H (Homo sapiens, UniProt P01116, Q61H)
# Construct: Biotinylated KRas (corresponding to amino acids 1-169, produced at Accelegan Inc.); biotin (biotinylated); purchased Accelegan Inc
# Sequence (P01116 1-169 isoform P01116-2 Q61H): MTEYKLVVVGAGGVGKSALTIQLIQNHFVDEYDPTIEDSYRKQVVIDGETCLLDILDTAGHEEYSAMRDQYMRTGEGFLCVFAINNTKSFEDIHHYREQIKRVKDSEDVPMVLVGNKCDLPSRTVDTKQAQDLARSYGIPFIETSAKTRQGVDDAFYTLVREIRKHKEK
# TEST PROTOCOL: KRas binding assay (TR-FRET tracer displacement), KRas Q61H
# TEST SETTINGS: TR-FRET tracer displacement, KRas Q61H
ASSAY METRIC: IC50 (nM)
Numbers only, in nM.

COMPOUND	READOUT UNIT	IC50
Cc1cc2[nH]ncc2c(-c2ncc3c(N4CCCn5nc(C(=O)N(C)C)cc5C4)nc(OCC45CCCN4CCC5)nc3c2F)c1C [Example 730]	nM	444
C#Cc1c(F)ccc2cc(O)cc(-c3ncc4c(N5CCC[C@@](C)(O)C5)nc(OC[C@@]56CCCN5[C@@H](CO)CC6)nc4c3F)c12 [Example 809]	nM	5
Cc1cc2[nH]ncc2c(-c2ncc3c(N4CCCC5(CNC(=O)N5)C4)nc(OCC45CCCN4CCC5)nc3c2F)c1C (stereo not shown) [Example 729]	nM	53
Cc1cc2[nH]nnc2c(-c2ncc3c(N4CC5C(=O)NC(=O)C5C4)nc(OCC45CCCN4CCC5)nc3c2F)c1C (stereo not shown) [Example 833]	nM	3670
Cc1cc2[nH]ncc2c(-c2ncc3c(N4CC5C(=O)NC(=O)C5C4)nc(OCC45CCCN4CCC5)nc3c2F)c1C (stereo not shown) [Example 726]	nM	177

Please state IC50 for every compound in the list that follows.
1. Oc1cc2ccccc2c(-c2ncc3c(N4C[C@@H]5C[C@H](C4)[C@H](O)C5)nc(OC[C@@]45CCCN4C[C@H](F)C5)nc3c2F)c1F [Example 751]
2. Cc1c(Cl)cc2[nH]ncc2c1-c1ncc2c(N3CCC[C@]4(C3)NC(=O)NC4=O)nc(OCC34CCCN3CCC4)nc2c1F [Example 766]

185
954

###

# MEASURED ON: KRas^G12D (Homo sapiens, UniProt P01116, G12D)
# Construct: Biotinylated KRas (corresponding to amino acids 1-169, produced at Accelegan Inc.); biotin (biotinylated); purchased Accelegan Inc
# Sequence (P01116 1-169 isoform P01116-2 G12D): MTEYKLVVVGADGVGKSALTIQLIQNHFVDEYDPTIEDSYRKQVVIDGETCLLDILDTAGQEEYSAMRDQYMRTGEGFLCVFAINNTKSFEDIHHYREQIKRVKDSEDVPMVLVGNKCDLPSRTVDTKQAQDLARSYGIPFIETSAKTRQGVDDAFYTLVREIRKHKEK
# TEST PROTOCOL: KRas binding assay (TR-FRET tracer displacement), KRas G12D
ASSAY METRIC: log10 IC50 (log10 of the value in nM)
Could you please treat all values as log10 of IC50 in nM?

COMPOUND	MEASURED VALUE
CCc1c(F)ccc2cc(O)cc(-c3ncc4c(N5CC6CCC(C5)S6)nc(OC[C@@]56CCCN5C[C@H](F)C6)nc4c3F)c12	1.87
CCc1c(F)ccc2cc(O)cc(-c3ncc4c(N5CC6COCC(CO)(C5)C6(F)F)nc(OC[C@@]56CCCN5C[C@H](F)C6)nc4c3F)c12 (stereo partly drawn)	2.50

Please state log10 IC50 for every compound in the list that follows.
1. CCc1c(F)ccc2cc(O)cc(-c3ncc4c(N5CCCCC(n6ccnn6)C5)nc(OC[C@@]56CCCN5C[C@H](F)C6)nc4c3F)c12 (stereo partly drawn)
2. Cc1cc2[nH]ncc2c(-c2ncc3c(N4CC5C(=O)NC(=O)C5C4)nc(OCC45CCCN4CCC5)nc3c2F)c1C (stereo not drawn)
3. Oc1cc(-c2ncc3c(N4C[C@@H]5C[C@H](C4)[C@H](O)C5)nc(OC[C@@]45CCCN4C[C@H](F)C5)nc3c2F)c2ccccc2c1F
4. CCc1c(F)ccc2cc(O)cc(-c3ncc4c(N5C[C@H]6C[C@@H](C5)[C@@H](O)[C@@H]6O)nc(OC[C@@]56CCCN5C[C@H](F)C6)nc4c3F)c12 (single isomer, unassigned)

0.70
1.76
1.99
2.48
